assay: PK study in SD rats; format: in vivo; details: male, Sprague-Dawley, plasma, iv; SD rat, 1.0 mg/kg i.v.
PROPERTY_NAME: AUC(0-t)
# answer = value followed by unit

Param item = `Cc1cc(-c2ccc(C#N)cc2)cc(C)c1Nc1nc(Nc2ccc(C#N)cc2)ncc1F` ; retrieve measured AUC(0-t).
3000 ng·h/mL

----------
molecular target: WT HIV-1 RT (Human immunodeficiency virus type 1 group M subtype B)
Consider the following compounds; for each one, report its pIC50.
Answers are plain numbers, as −log10 of the molar value.

Worked examples follow.
COc1cc(-c2ccncc2)ccc1Oc1nc(Nc2ccc(C#N)cc2)ncc1F [A16]    7.47
COc1cc(-c2ccc(C#N)cc2)ccc1Oc1nc(Nc2ccc(C#N)cc2)ncc1F [A4]    7.34
Cc1cc(-c2ccc(C#N)cc2)ccc1Nc1nc(Nc2ccc(C#N)cc2)ncc1F [A9]    7.44

Below are some compounds; for each one, tell me its pIC50.
1. N#Cc1ccc(Nc2ncc(F)c(Oc3ccc(-c4ccc(C#N)cc4)cc3F)n2)cc1 [A1]
2. Cc1cc(-c2ccc(C#N)cc2)cc(C)c1Nc1nc(Nc2ccc(C#N)cc2)ncc1F [A12]

7.27
7.39

The reported measurements were obtained from paper PMC12399242.
